system: enzyme (protease) of the present invention; type: biochemical, Aureobacterium sp. MIM-CG-9535-I; settings: inhibitor 20 mM; 30 min at 37° C.; no inhibitor = 100 percent
measured.metric: Residual activity (%)
Lab book: enter the figure in %, no units written.

Solved entries (count: 2):
OCCS | 73
NC(=O)CI [Iodoacetamide, iodoacetamide] | 77

According to the records, this molecule N[C@@H](CS)C(=O)O displays Residual activity (%) of 0

// CCN1C(=O)C=CC1=O [N-Ethylmaleimide, N-ethylmaleimide] : Residual activity (%) value = 79

Data point: O=S(=O)(F)Cc1ccccc1 [PMSF, phenylmethanesulfonyl fluoride] ; Residual activity (%) = 84

---

tested on: enzyme (protease) of the present invention; assay: Cutting activity (specific protease activity) on fluorescence-labeled synthetic peptides; type: biochemical, Aureobacterium sp. MIM-CG-9535-I; conditions: fluorescence-labeled peptides with varied peptide chain
Sequence (as listed by the source): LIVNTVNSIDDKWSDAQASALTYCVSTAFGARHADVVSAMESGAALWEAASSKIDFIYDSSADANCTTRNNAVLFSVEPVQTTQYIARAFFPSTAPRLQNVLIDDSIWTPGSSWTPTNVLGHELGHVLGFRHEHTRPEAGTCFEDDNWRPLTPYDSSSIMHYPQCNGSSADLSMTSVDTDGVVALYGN
No end group written: not given here.
measured.metric: Present or Absent of Specific degradation activity

GPAG FAG: fluorescence-labeled synthetic peptide, single letter code (GPAGFAG; also: fluorescence label, site not given here) | Absent
GPAG FA: fluorescence-labeled synthetic peptide, single letter code (GPAGFA; also: fluorescence label, site not given here) | Absent
AG FAGP: fluorescence-labeled synthetic peptide, single letter code (AGFAGP; also: fluorescence label, site not given here) | Absent

---

tested on: enzyme (protease) of the present invention; type: biochemical, Aureobacterium sp. MIM-CG-9535-I; conditions: inhibitor 0.05 mM; 30 min at 37° C.; no inhibitor = 100 percent
measured.metric: Residual activity (%)
Answer with the value and then the unit.

These recorded examples may help you get a feel for the data.
CC(C)C[C@H](NC(=O)[C@H]1O[C@@H]1C(=O)O)C(=O)NCCCCN=C(N)N | 95%
CC(C)C[C@H](NP(=O)(O)O[C@@H]1O[C@@H](C)[C@H](O)[C@@H](O)[C@H]1O)C(=O)N[C@@H](Cc1c[nH]c2ccccc12)C(=O)O | 91%
CC(=O)N[C@@H](CC(C)C)C(=O)N[C@@H](CC(C)C)C(=O)N[C@H](C=O)CCCNC(=N)N | 92%

Value of measured Residual activity (%) for the entry CC(C)C[C@H](NC(=O)[C@@H](NC(=O)N[C@@H](Cc1ccccc1)C(=O)O)[C@@H]1CCN=C(N)N1)C(=O)N[C@H](C=O)Cc1ccccc1 : 85%

---

test system: enzyme (protease) of the present invention; assay: Cutting activity (specific protease activity) on fluorescence-labeled synthetic peptides; assay type: biochemical, Aureobacterium sp. MIM-CG-9535-I; conditions: fluorescence-labeled peptides with varied peptide chain
Starred links: 1 amine or outer side, 2 acyl side, 3 side chain; linkers in the order of their positions; H or OH if unused. No end group written: not given here. *: point of attachment. K(DNP) = O=C([C@H](CCCCNc1ccc([N+](=O)[O-])cc1[N+](=O)[O-])N[*:1])[*:2]; Benzoyl(2-NHMe) = CNc1ccccc1C(=O)*
measured.metric: Present or Absent of Specific degradation activity

Pro-Ala-Gly-Phe-Ala-Gly-Pro (PAGFAGP; also: fluorescent label, type and site not given here) [PAG FAGP, fluorescence-labeled synthetic peptide, single letter code] | Present
Nma-Gly-Pro-Ala-Gly-Phe-Ala-Gly-Pro-Lys-(DNP)r-NH2 ({Benzoyl(2-NHMe)}-GPAGFAGP-{K(DNP)-dR-NH2}; SMILES CNc1ccccc1C(=O)NCC(=O)N1CCC[C@H]1C(=O)N[C@@H](C)C(=O)NCC(=O)N[C@@H](Cc1ccccc1)C(=O)N[C@@H](C)C(=O)NCC(=O)N1CCC[C@H]1C(=O)N[C@@H](CCCCNc1ccc([N+](=O)[O-])cc1[N+](=O)[O-])C(=O)N[C@H](CCCNC(=N)N)C(N)=O) [Gly-Pro-Ala-Gly-↓-Phe-Ala-Gly-Pro, fluorescence-labeled synthetic substrate] | Present

Entry source: patent US7871797B2
